tgt: BACE1 (Homo sapiens)
Sequence (P56817 46-501, species assumed): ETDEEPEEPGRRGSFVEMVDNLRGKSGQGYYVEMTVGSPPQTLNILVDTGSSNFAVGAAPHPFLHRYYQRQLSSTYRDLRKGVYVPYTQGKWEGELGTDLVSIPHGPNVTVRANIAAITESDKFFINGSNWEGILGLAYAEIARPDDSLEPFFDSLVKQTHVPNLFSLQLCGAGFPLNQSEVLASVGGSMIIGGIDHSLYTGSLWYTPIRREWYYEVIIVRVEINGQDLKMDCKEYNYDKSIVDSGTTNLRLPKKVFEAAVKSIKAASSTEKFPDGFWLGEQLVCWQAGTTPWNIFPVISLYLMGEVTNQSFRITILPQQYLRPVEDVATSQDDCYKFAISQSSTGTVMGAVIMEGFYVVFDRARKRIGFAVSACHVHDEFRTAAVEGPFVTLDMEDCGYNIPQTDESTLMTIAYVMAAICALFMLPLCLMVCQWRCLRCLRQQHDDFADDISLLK
protocolText: In vitro enzymatic BACE FRET assay
Assay type: biochemical
details: read-out: BACE1 FRET assay IC50
pIC50: −log10 of the molar value.
Binary classification by pIC50, with 8 as an inclusive lower bound for TRUE; all other cases are FALSE.

INSERT INTO assay_data (structurenotation, tgt, grouplabel) VALUES
  ('COc1cnc2c(Nc3ccc(F)c([C@@]4(C)N=C(N)[C@@]5(C)CC[C@@H]4S5(=O)=O)c3)ncc(F)c2c1', 'BACE1 (Homo sapiens)', 'TRUE'),
  ('C[C@]12CC[C@H]([C@@](C)(c3cc(Nc4ncc(F)c5cc(Cl)cnc45)ccc3F)N=C1N)S2(=O)=O', 'BACE1 (Homo sapiens)', 'FALSE'),
  ('Cc1cc(Cl)cnc1C(=O)Nc1ccc(F)c([C@@]2(C)N=C(N)[C@H]3CCC[C@@H]2S3(=O)=O)c1', 'BACE1 (Homo sapiens)', 'TRUE');
